biological target: panel of more than 300 wild-type and mutant kinases (313 kinase panel) (Homo sapiens); assay: Kinase profiling in a biochemical assay panel (mobility shift assays and ELISA), %-inhibition at 1 μM; selectivity entropy; conditions: kinase TYK2; compound at 1 μM
Assign %-inhibition of TYK2 to each entry below.
Give bare numbers, in %.

molecule	value.type	number
CS(=O)(=O)CCNCc1ccc(-c2ccc3ncnc(Nc4ccc(OCc5cccc(F)c5)c(Cl)c4)c3c2)o1 [lapatinib]	%-inhibition of TYK2	-10
CO[C@H]1C[C@@H]2CC[C@@H](C)[C@@](O)(O2)C(=O)C(=O)N2CCCC[C@H]2C(=O)O[C@H]([C@H](C)C[C@@H]2CC[C@@H](OC(=O)C(C)(CO)CO)[C@H](OC)C2)CC(=O)[C@H](C)/C=C(\C)[C@@H](O)[C@@H](OC)C(=O)[C@H](C)C[C@H](C)/C=C/C=C/C=C/1C [temsirolimus]	%-inhibition of TYK2	-6.58
O=S(=O)(c1cccc2cnccc12)N1CCCNCC1 [fasudil]	%-inhibition of TYK2	6

For each of the molecules below, state %-inhibition of TYK2.
1. COc1cc2nccc(Oc3ccc(NC(=O)C4(C(=O)Nc5ccc(F)cc5)CC4)cc3)c2cc1OC [cabozantinib]
2. COc1cc(Nc2c(C#N)cnc3cc(OCCCN4CCN(C)CC4)c(OC)cc23)c(Cl)cc1Cl [bosutinib]
3. CC(C)(C)c1nc(-c2cccc(NS(=O)(=O)c3c(F)cccc3F)c2F)c(-c2ccnc(N)n2)s1 [dabrafenib]
4. CNC(=O)c1cc(Oc2ccc(NC(=O)Nc3ccc(Cl)c(C(F)(F)F)c3)c(F)c2)ccn1 [regorafenib]

**A:**
-3.68
-3.37
10
-3.68

###

Assignment: determine reported %-inhibition, CHK2 for the given compounds.
biological target: panel of more than 300 wild-type and mutant kinases (313 kinase panel) (Homo sapiens, UniProt O96017); test: Kinase profiling in a biochemical assay panel (mobility shift assays and ELISA), %-inhibition at 1 μM; selectivity entropy; details: kinase CHK2; 1 μM compound
Just so you know, I need the unit written after the number.

Batch of 3 compounds: report %-inhibition, CHK2 for each.
1. CS(=O)(=O)CCNCc1ccc(-c2ccc3ncnc(Nc4ccc(OCc5cccc(F)c5)c(Cl)c4)c3c2)o1
2. CCCS(=O)(=O)Nc1ccc(F)c(C(=O)c2c[nH]c3ncc(-c4ccc(Cl)cc4)cc23)c1F
3. N#CC[C@H](C1CCCC1)n1cc(-c2ncnc3[nH]ccc23)cn1

**A:**
["12%", "6.32%", "3.64%"]

###

For each of the molecules below, state its log10 of IC50.
test system: forty-four human cancer cell lines; assay: Cell proliferation assay (ATPlite, 72 hours) in the 44 cell line Oncolines panel; format: cell-based; conditions: Homo sapiens, HCT-15, read-out: cell panel IC50, HCT-15
// stored as log10 of IC50 expressed in µM

Use these answered entries as a reference point.
molecule	log10 of IC50
COc1cc(Nc2c(C#N)cnc3cc(OCCCN4CCN(C)CC4)c(OC)cc23)c(Cl)cc1Cl [bosutinib]	0.31
N#CC[C@H](C1CCCC1)n1cc(-c2ncnc3[nH]ccc23)cn1 [ruxolitinib]	1.40
CS(=O)(=O)CCNCc1ccc(-c2ccc3ncnc(Nc4ccc(OCc5cccc(F)c5)c(Cl)c4)c3c2)o1 [lapatinib]	0.95
CN(C)C/C=C/C(=O)Nc1cc2c(Nc3ccc(F)c(Cl)c3)ncnc2cc1O[C@H]1CCOC1 [afatinib]	0.19

**Q:** // lookup log10 of IC50 for COc1cc2c(Nc3ccc(Br)cc3F)ncnc2cc1OCC1CCN(C)CC1 [vandetanib]
**A:** 0.87

###

For each of the molecules below, state its %-inhibition, AurA/TPX2.
target: panel of more than 300 wild-type and mutant kinases (313 kinase panel) (Homo sapiens); assay: Kinase profiling in a biochemical assay panel (mobility shift assays and ELISA), %-inhibition at 1 μM; selectivity entropy; settings: kinase AurA/TPX2; 1 μM compound
One number for each entry, in %.

molecule	number
CO[C@H]1C[C@@H]2CC[C@@H](C)[C@@](O)(O2)C(=O)C(=O)N2CCCC[C@H]2C(=O)O[C@H]([C@H](C)C[C@@H]2CC[C@@H](OC(=O)C(C)(CO)CO)[C@H](OC)C2)CC(=O)[C@H](C)/C=C(\C)[C@@H](O)[C@@H](OC)C(=O)[C@H](C)C[C@H](C)/C=C/C=C/C=C/1C [temsirolimus]	-3.42
Cc1nc(Nc2ncc(C(=O)Nc3c(C)cccc3Cl)s2)cc(N2CCN(CCO)CC2)n1 [dasatinib]	22
O=S(=O)(c1cccc2cnccc12)N1CCCNCC1 [fasudil]	-1.11
CCN(CC)CCNC(=O)c1c(C)[nH]c(/C=C2\C(=O)Nc3ccc(F)cc32)c1C [sunitinib]	72

Now for a further molecule.
**Q:** What value of %-inhibition, AurA/TPX2 has been recorded for this entry: CO[C@H]1C[C@@H]2CC[C@@H](C)[C@@](O)(O2)C(=O)C(=O)N2CCCC[C@H]2C(=O)O[C@H]([C@H](C)C[C@@H]2CC[C@@H](OCCO)[C@H](OC)C2)CC(=O)[C@H](C)/C=C(\C)[C@@H](O)[C@@H](OC)C(=O)[C@H](C)C[C@H](C)/C=C/C=C/C=C/1C [everolimus]
**A:** -4.51

###

Can you tell me %-inhibition of LKB1 for the items I'm about to list?
biological target: panel of more than 300 wild-type and mutant kinases (313 kinase panel) (Homo sapiens, UniProt Q15831); assay: Kinase profiling in a biochemical assay panel (mobility shift assays and ELISA), %-inhibition at 1 μM; selectivity entropy; conditions: kinase LKB1; compound at 1 μM
Sequence (Q15831 whole entry, change not shown): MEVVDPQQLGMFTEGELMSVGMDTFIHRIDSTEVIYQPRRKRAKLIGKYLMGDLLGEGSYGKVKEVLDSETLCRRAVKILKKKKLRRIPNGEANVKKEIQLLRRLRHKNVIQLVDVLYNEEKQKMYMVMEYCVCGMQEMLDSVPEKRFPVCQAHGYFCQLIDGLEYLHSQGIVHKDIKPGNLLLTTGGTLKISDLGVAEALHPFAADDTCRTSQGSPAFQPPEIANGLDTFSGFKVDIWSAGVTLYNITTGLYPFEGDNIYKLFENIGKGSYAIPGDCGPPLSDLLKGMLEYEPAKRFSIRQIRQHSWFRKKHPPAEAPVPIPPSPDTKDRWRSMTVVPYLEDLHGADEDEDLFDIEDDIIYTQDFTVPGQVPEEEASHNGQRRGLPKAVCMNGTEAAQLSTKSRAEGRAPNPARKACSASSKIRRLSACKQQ
Numbers only, in %.

Look over these answered cases.
compound	%-inhibition of LKB1 (%)
COc1cc(Nc2c(C#N)cnc3cc(OCCCN4CCN(C)CC4)c(OC)cc23)c(Cl)cc1Cl [bosutinib]	-5.27
COc1cc2nccc(Oc3ccc(NC(=O)C4(C(=O)Nc5ccc(F)cc5)CC4)cc3)c2cc1OC [cabozantinib]	-3.17
Cc1nc(Nc2ncc(C(=O)Nc3c(C)cccc3Cl)s2)cc(N2CCN(CCO)CC2)n1 [dasatinib]	0.734

**Q:** # lookup: %-inhibition of LKB1 of Cc1ccc(Nc2nccc(N(C)c3ccc4c(C)n(C)nc4c3)n2)cc1S(N)(=O)=O [pazopanib]
**A:** 28

###

Biological target: panel of more than 300 wild-type and mutant kinases (313 kinase panel) (Homo sapiens, UniProt Q9Y2U5)
Sequence (Q9Y2U5 1-619): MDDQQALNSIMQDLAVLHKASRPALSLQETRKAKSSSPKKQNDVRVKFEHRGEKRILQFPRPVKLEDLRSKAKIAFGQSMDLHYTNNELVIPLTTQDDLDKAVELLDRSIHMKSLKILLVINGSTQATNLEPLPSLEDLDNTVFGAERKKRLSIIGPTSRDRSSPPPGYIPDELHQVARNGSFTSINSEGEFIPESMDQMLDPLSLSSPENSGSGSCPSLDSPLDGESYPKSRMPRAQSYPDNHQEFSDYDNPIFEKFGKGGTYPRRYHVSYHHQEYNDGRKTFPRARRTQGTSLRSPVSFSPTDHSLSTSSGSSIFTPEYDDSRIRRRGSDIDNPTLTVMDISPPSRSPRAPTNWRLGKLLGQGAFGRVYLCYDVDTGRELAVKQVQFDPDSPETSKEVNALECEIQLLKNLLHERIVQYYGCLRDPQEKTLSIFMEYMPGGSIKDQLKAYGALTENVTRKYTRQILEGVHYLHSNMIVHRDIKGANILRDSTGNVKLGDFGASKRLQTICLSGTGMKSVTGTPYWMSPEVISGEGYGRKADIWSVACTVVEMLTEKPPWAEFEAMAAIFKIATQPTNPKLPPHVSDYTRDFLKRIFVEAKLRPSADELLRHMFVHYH
Assay: Kinase profiling in a biochemical assay panel (mobility shift assays and ELISA), %-inhibition at 1 μM; selectivity entropy
Details: kinase MAP3K2; compound at 1 μM
So I've got a bunch of compounds here, and I need their %-inhibition of MAP3K2 values.
One number for each entry, in %.

Reference set, count: 2
compound	%-inhibition of MAP3K2 [%]
Cc1ccc(Nc2nccc(N(C)c3ccc4c(C)n(C)nc4c3)n2)cc1S(N)(=O)=O [pazopanib]	46
CC(C)(C)c1nc(-c2cccc(NS(=O)(=O)c3c(F)cccc3F)c2F)c(-c2ccnc(N)n2)s1 [dabrafenib]	71

For every item below, please supply its %-inhibition of MAP3K2.
1. CCCS(=O)(=O)Nc1ccc(F)c(C(=O)c2c[nH]c3ncc(-c4ccc(Cl)cc4)cc23)c1F [vemurafenib]
2. CO[C@H]1C[C@@H]2CC[C@@H](C)[C@@](O)(O2)C(=O)C(=O)N2CCCC[C@H]2C(=O)O[C@H]([C@H](C)C[C@@H]2CC[C@@H](OC(=O)C(C)(CO)CO)[C@H](OC)C2)CC(=O)[C@H](C)/C=C(\C)[C@@H](O)[C@@H](OC)C(=O)[C@H](C)C[C@H](C)/C=C/C=C/C=C/1C [temsirolimus]
3. CO[C@H]1C[C@@H]2CC[C@@H](C)[C@@](O)(O2)C(=O)C(=O)N2CCCC[C@H]2C(=O)O[C@H]([C@H](C)C[C@@H]2CC[C@@H](OCCO)[C@H](OC)C2)CC(=O)[C@H](C)/C=C(\C)[C@@H](O)[C@@H](OC)C(=O)[C@H](C)C[C@H](C)/C=C/C=C/C=C/1C [everolimus]
4. CC(=O)Nc1cccc(-n2c(=O)n(C3CC3)c(=O)c3c(Nc4ccc(I)cc4F)n(C)c(=O)c(C)c32)c1 [trametinib]
5. CS(=O)(=O)CCNCc1ccc(-c2ccc3ncnc(Nc4ccc(OCc5cccc(F)c5)c(Cl)c4)c3c2)o1 [lapatinib]
6. COc1cc2nccc(Oc3ccc(NC(=O)C4(C(=O)Nc5ccc(F)cc5)CC4)cc3)c2cc1OC [cabozantinib]
7. Cc1ccc(C(=O)Nc2ccc(CN3CCN(C)CC3)c(C(F)(F)F)c2)cc1C#Cc1cnc2cccnn12 [ponatinib]
8. COc1cc2c(Nc3ccc(Br)cc3F)ncnc2cc1OCC1CCN(C)CC1 [vandetanib]

**A:**
1. 21
2. 5.58
3. 7.56
4. 0.801
5. 5.6
6. 9
7. 79
8. 14

I need %-inhibition of MAP3K2 for every entry listed below, if you could help.
1. CNC(=O)c1cc(Oc2ccc(NC(=O)Nc3ccc(Cl)c(C(F)(F)F)c3)c(F)c2)ccn1 [regorafenib]
2. Cc1cn(-c2cc(NC(=O)c3ccc(C)c(Nc4nccc(-c5cccnc5)n4)c3)cc(C(F)(F)F)c2)cn1 [nilotinib]
3. O=S(=O)(c1cccc2cnccc12)N1CCCNCC1 [fasudil]

**A:**
19
-26
-15

Cited source for all entries: paper PMC3961306
